Field pKi: reported value for Interstitial collagenase (Homo sapiens); entries drawn from several documents.
Remember the convention: pKi equals -log10 of concentration in molar.

- CCc1ccc(CCC[C@H](CC(=O)NO)C(=O)N[C@@H](CC2CCCCC2)C(=O)NCCc2ccccc2)cc1: 5.29
- CN(C)CCCCNC(=O)CCNC(=O)[C@H](CC1CCCCC1)NC(=O)[C@H](CCCc1ccc(Cl)cc1)CC(=O)NO: 5.98

Incoming: Which pKi is reported for this molecule? C[C@H](NC(=O)[C@H](Cc1ccccc1)NS(=O)(=O)Cc1ccccc1)C(=O)Nc1n[nH]c(=S)s1
Outgoing: 4.62

Incoming: Continue with O=S(=O)(N[C@@H]1CNC[C@H]1S)c1ccc(Oc2ccccc2)cc1
Outgoing: 5.20

Incoming: Continue with CNC(=O)[C@H](Cc1ccc(OC)cc1)NC(=O)[C@H](CC(C)C)[C@@](C)(O)C(=O)NO
Outgoing: 9.22

Incoming: Continue with COc1cc(C)c(S(=O)(=O)N(Cc2ccc3c(c2)OCO3)[C@H](CCC(=O)N2CCN(C(C)=O)CC2)C(=O)NO)c(C)c1C
Outgoing: 4.43

Incoming: Continue with CN(C)CCCCNC(=O)[C@H](CC1CCCCC1)NC(=O)[C@H](CCCc1ccc(Cl)cc1)CC(=O)NO
Outgoing: 5.98

Incoming: Continue with CCCCCCC(CC(=O)NO)S(=O)(=O)N[C@@H](Cc1ccc(OC)cc1)C(=O)NC (some centres undefined)
Outgoing: 5.64

Incoming: Continue with CNC(=O)[C@@H](NC(=O)[C@H](CCCCOc1cccc(Cl)c1)CC(=O)NO)C(C)(C)C
Outgoing: 6.84

Incoming: Continue with C[C@H](NC(=O)[C@H](Cc1ccccc1)NS(=O)(=O)c1cccc2c(N(C)C)cccc12)C(=O)Nc1n[nH]c(=S)s1
Outgoing: 4.06

Incoming: Continue with Cc1ccc(CCC[C@H](CC(=O)NO)C(=O)N[C@@H](CC2CCCCC2)C(=O)NCCC(=O)NCCCCN(C)C)cc1
Outgoing: 6.50

Incoming: Continue with O=C(CCS(=O)(=O)N1CCC(Oc2ccc(-n3ccnc3)cc2)CC1)NO
Outgoing: 6.65

Incoming: Continue with O=C(C[C@@H](Cc1ccc(O)cc1)C(=O)N[C@@H]1CCc2ccccc21)NO
Outgoing: 4.12
